Property: growth inhibition; scope: individual compounds
- protocol-notes: NCI Yeast Anticancer Drug Screen. Data for the cln2 rad14 strain (AID 165);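 note: 0% = growth equal to vehicle treated cultures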
- recorded-conditions: S. cerevisiae cln2 rad14 strain, at 50.0 µM, stronger effect = higher value
The panel holds about 79,000 compounds, 15% with a hit somewhere; the sample as a whole holds those more often.
Response body: numeric value in %, unit text excluded.

Query block: Query (compound): "O=[N+]([O-])c1ccc(CCCCCc2ccccc2)cc1" ; field requested: growth inhibition
Result block: -75.2

Query block: Follow-up item: "Cc1cc2c(cc1[N+](=O)[O-])OCCO2"
Result block: -15.5

Query block: Follow-up item: "Cc1cc(C)nc(C)c1"
Result block: -11.1

----------
- protocol-notes: NCI Yeast Anticancer Drug Screen. Data for the mlh1 rad18 strain (AID 175)
- recorded-conditions: S. cerevisiae mlh1 rad18 strain growth inhibition; at 50.0 µM; stronger effect = higher value
About 79,000 compounds went through this panel and 15% of them were active in at least one assay; those are over-represented in the sample as a whole.
measured-parameter: growth inhibition (%)
Response body: numeric value in %, unit text excluded.

INSERT INTO results (compound, meas_value) VALUES
  ('CCCCCCO/N=C\c1c2c(O)c3c(O)c(C)c4c(c3c1O)C(=O)C(C)(O/C=C\C(OC)C(C)C(OC(C)=O)C(C)C(O)C(C)C(O)C(C)/C=C\C=C(\C)C(=O)N2)O4 (stereo unspecified)', 53.9);

Query block: Query (compound): "N/N=C(/c1ccc(Cl)cc1)N1CCOCC1" ; field requested: growth inhibition
Result block: 5.35

Query block: Follow-up item: "O=C([O-])c1ccc(C(=O)[O-])cc1.O=C([O-])c1ccc(C(=O)[O-])cc1.[Mo+2].[Mo+2]"
Result block: 16.6

Query block: Follow-up item: "C=CCN(CC=C)C(=S)NC(=O)c1ccccc1"
Result block: 2.25

Query block: Follow-up item: CC(C(=O)c1ccncc1)c1ccccn1 (stereo unspecified)
Result block: 3.5

----------
- protocol-notes: NCI Yeast Anticancer Drug Screen. Data for the mlh1 rad18 strain (AID 175)
- recorded-conditions: S. cerevisiae mlh1 rad18 strain growth inhibition; at 50.0 µM; stronger effect = higher value
- Procedure: Growth inhibition of yeast strains with defined genetic alterations is measured as a screen for potential anti-cancer activity. Selected strains with alterations in DNA damage repair or cell cycle control were exposed to compounds and growth inhibition was measured relative to vehicle treated controls. The strain used in this assay is mlh1 rad18
Compounds without any hit were thinned out: in the full panel of roughly 79,000, 15% have a hit.
measured-parameter: growth inhibition (%)
Response body: numeric value in %, unit text excluded.

INSERT INTO measurements (compound, measured_parameter, unit_tag, meas_value) VALUES
  ('CCOC(=O)C1CN2C(=O)CCC2C1=O (centres undefined)', 'growth inhibition', '%', 4.7),
  ('C1=Cc2c3c(c4c(c2C1)C=CC4)C=CC3', 'growth inhibition', '%', 6.3),
  ('Nc1nc(N)c(-c2ccc(Cl)cc2)c(CCC(=O)Nc2cccc(C(F)(F)F)c2)n1', 'growth inhibition', '%', -21.1),
  ('N#CCCC1C(C#N)C2CC1C1C3C=CC(C3)C21 (centres undefined)', 'growth inhibition', '%', 26.2),
  ('Nc1cccc([N+](=O)[O-])c1O', 'growth inhibition', '%', 12.4);

Query block: Query (compound): "COc1ccc(-c2nc3c(nc2-c2ccc(OC)cc2)C(N)=NS(=O)(=O)N3)cc1" ; field requested: growth inhibition
Result block: -10.1

Query block: Follow-up item: "CS(=O)(=O)OCCCCOS(C)(=O)=O"
Result block: 0.05

Query block: Follow-up item: "C[Si](C)(C)C#C[I+]c1ccccc1"
Result block: -8.85

Query block: Follow-up item: "COc1cc(\C=N/N=C/C=C/c2ccccc2)cc(OC)c1OC"
Result block: 15.5

Query block: Follow-up item: "Cc1ccc(C(=O)/C=C\c2ccc(Cl)c(Cl)c2)cc1"
Result block: 5.6
